Study System: HLA-B*58:01
Assay Name: IEDB peptide-MHC binding, purified MHC/direct/fluorescence; filed as Kd, often an IC50 or EC50 that approximates it; bounds were set here for any values at or beyond the usual limits of such assays
Details: source organism: Coxiella burnetii
Item-by-item account of Kd

Look over these answered cases.
[
  {
    "Sequence": "HEGDIVPLF",
    "Kd": "≥ 20 µM"
  },
  {
    "Sequence": "IIGLLKIFR",
    "Kd": "≥ 20 µM"
  }
]

Then this sequence:
Request: Would you kindly share the measured Kd for VPPESVEAA ?
Response: ≥ 20 µM

* * *

Study System: HLA-B*07:02
Assay Name: IEDB peptide-MHC binding, purified MHC/competitive/radioactivity; filed as Kd, often an IC50 or EC50 that approximates it; bounds were set here for any values at or beyond the usual limits of such assays
Details: source organism: SARS coronavirus Tor2
Endpoint Name: Kd (nM)
Dear colleague, please return just the value in nM, with no unit written.

[
  {
    "Sequence": "KPNTWCLRCL",
    "Kd [nM]": 339
  },
  {
    "Sequence": "APHGVVFLHV",
    "Kd [nM]": 254
  }
]

Request: Quick one: Kd for KPPISFPLCA ?
Response: 17200

* * *

Study System: HLA-A*11:01
Assay Name: IEDB peptide-MHC binding, purified MHC/direct/fluorescence; filed as Kd, often an IC50 or EC50 that approximates it; bounds were set here for any values at or beyond the usual limits of such assays
Details: source organism: Cryptosporidium parvum
Endpoint Name: Kd

Request: Please report the recorded Kd for RLLRMNNEN .
Response: ≥ 20 µM

* * *

Study System: HLA-B*54:01
Assay Name: IEDB peptide-MHC binding, purified MHC/competitive/radioactivity; filed as Kd, often an IC50 or EC50 that approximates it; bounds were set here for any values at or beyond the usual limits of such assays
Details: source organism: Hepatitis C virus (isolate 1)
pKd: −log10 of the molar value.
Endpoint Name: pKd

Request: Value lookup for pKd; key = ATDALMTGY
Response: ≤ 4.20

* * *

Study System: HLA-A*02:01
Assay Name: IEDB peptide-MHC binding, purified MHC/competitive/fluorescence; filed as Kd, often an IC50 or EC50 that approximates it; bounds were set here for any values at or beyond the usual limits of such assays
Details: source organism: Orthomarburgvirus marburgense
Endpoint Name: pKd
// field semantics: pKd = negative decimal log of concentration (mol/L)

Request: I have this sequence here, YHLGGIEGL , and I need its recorded pKd.
Response: 8.15

* * *

Study System: HLA-A*24:02
Assay Name: IEDB peptide-MHC binding, purified MHC/direct/fluorescence; filed as Kd, often an IC50 or EC50 that approximates it; bounds were set here for any values at or beyond the usual limits of such assays
Details: source organism: Giardia lamblia ATCC 50803
Endpoint Name: Kd

Request: Which value of Kd has been reported for WLKEKHEEL in the records?
Response: ≥ 20 µM

* * *

Study System: HLA-A*02:03
Assay Name: IEDB peptide-MHC binding, purified MHC/competitive/radioactivity; filed as Kd, often an IC50 or EC50 that approximates it; bounds were set here for any values at or beyond the usual limits of such assays
Details: source organism: Vaccinia virus WR
Reported Kd is given for each of the following sequences.
Give the value, in units of µM, as a plain number.

[
  {
    "Sequence": "LAEHISDSI",
    "Units Text": "µM",
    "Endpoint Result": 0.731
  },
  {
    "Sequence": "CVDHPFIYVI",
    "Units Text": "µM",
    "Endpoint Result": 10.8
  },
  {
    "Sequence": "GIIITVGML",
    "Units Text": "µM",
    "Endpoint Result": 0.349
  }
]

Request: Return reported Kd; argument: TLFGRGVIDT
Response: 0.0956

Request: Would you kindly share the measured Kd for IAGGVCYYLL ?
Response: 14.6

* * *

Study System: HLA-A*11:01
Assay Name: IEDB peptide-MHC binding, purified MHC/competitive/fluorescence; bounds were set here for any values at or beyond the usual limits of such assays
Details: source organism: Homo sapiens
Endpoint Name: IC50 (nM)
A number alone suffices; assume nM.

Request: Param item = MVRVLTVIKEY ; retrieve measured IC50.
Response: 833

* * *

Study System: HLA-B*35:01
Assay Name: IEDB peptide-MHC binding, purified MHC/competitive/fluorescence; filed as Kd, often an IC50 or EC50 that approximates it; bounds were set here for any values at or beyond the usual limits of such assays
Details: source organism: Coxiella burnetii RSA 331
Endpoint Name: Kd (nM)
Write the value in nM as a bare number.

Request: Look up Kd: HEGDIVPLF
Response: 183

* * *

Study System: HLA-A*02:11
Assay Name: IEDB peptide-MHC binding, purified MHC/competitive/fluorescence; filed as Kd, often an IC50 or EC50 that approximates it; bounds were set here for any values at or beyond the usual limits of such assays
Details: source organism: Human immunodeficiency virus 1
Endpoint Name: pKd
For clarity, pKd is expressed as the negative log10 of concentration in mol/L.

Request: Entry GLGQYIYET has what pKd?
Response: 7.49

* * *

Study System: HLA-B*53:01
Assay Name: IEDB peptide-MHC binding, purified MHC/competitive/radioactivity; filed as Kd, often an IC50 or EC50 that approximates it; bounds were set here for any values at or beyond the usual limits of such assays
Details: source organism: Triticum aestivum
Endpoint Name: pKd
When answering, recall that pKd equals minus log10 of the concentration in mol/L, and write that number alone.

Request: Value lookup for pKd; key = QPYPQPQPQY
Response: 5.79

* * *

Study System: HLA-A*03:01
Assay Name: IEDB peptide-MHC binding, purified MHC/competitive/fluorescence; filed as Kd, often an IC50 or EC50 that approximates it; bounds were set here for any values at or beyond the usual limits of such assays
Details: source organism: Rickettsia sibirica 246
Endpoint Name: Kd

Request: Which Kd value is on record for YLKKLDDFY ?
Response: ≥ 20 µM

* * *

Study System: HLA-B*08:01
Assay Name: IEDB peptide-MHC binding, purified MHC/direct/fluorescence; filed as Kd, often an IC50 or EC50 that approximates it; bounds were set here for any values at or beyond the usual limits of such assays
Details: source organism: Escherichia coli O157:H7
Endpoint Name: pKd
pKd here is simply -log10 of the concentration when that concentration is written in mol/L.

Request: Write down the reported pKd of IAIPAHVRL , test system: HLA-B*08:01.
Response: 5.35

* * *

Study System: HLA-A*68:02
Assay Name: IEDB peptide-MHC binding, purified MHC/direct/fluorescence; filed as Kd, often an IC50 or EC50 that approximates it; bounds were set here for any values at or beyond the usual limits of such assays
Details: source organism: Bacillus anthracis str. Sterne
Endpoint Name: Kd

Request: Given the entry KKNHWFILK , report its measured Kd.
Response: ≥ 20 µM

* * *

Study System: HLA-A*01:01
Assay Name: IEDB peptide-MHC binding, purified MHC/competitive/radioactivity; filed as Kd, often an IC50 or EC50 that approximates it; bounds were set here for any values at or beyond the usual limits of such assays
Details: source organism: Mammarenavirus machupoense
Endpoint Name: Kd (nM)
Could you give me the number in nM? Just the number is fine.

Request: Find the measured Kd: item CGDPSSLDY , target or system HLA-A*01:01.
Response: 6.78

* * *

Study System: HLA-A*11:01
Assay Name: IEDB peptide-MHC binding, purified MHC/direct/fluorescence; filed as Kd, often an IC50 or EC50 that approximates it; bounds were set here for any values at or beyond the usual limits of such assays
Details: source organism: Camelpox virus M-96
Endpoint Name: Kd

Request: Bench note: what Kd did EYYFRNEVF show?
Response: ≥ 20 µM

* * *

Study System: HLA-B*48:01
Assay Name: IEDB peptide-MHC binding, purified MHC/competitive/fluorescence; filed as Kd, often an IC50 or EC50 that approximates it; bounds were set here for any values at or beyond the usual limits of such assays
Details: source organism: Salmonella enterica subsp. enterica serovar Typhi
pKd: −log10 of the molar value.
Endpoint Name: pKd

Request: Item LSEEANWAF has what recorded pKd?
Response: ≤ 4.70

* * *

Study System: HLA-A*03:01
Assay Name: IEDB peptide-MHC binding, purified MHC/direct/fluorescence; filed as Kd, often an IC50 or EC50 that approximates it; bounds were set here for any values at or beyond the usual limits of such assays
Details: source organism: Araucaria virus
pKd: −log10 of the molar value.
Endpoint Name: pKd

Request: State its pKd on HLA-A*03:01: GVPELGAFF
Response: ≤ 4.70

* * *

Study System: HLA-B*48:01
Assay Name: IEDB peptide-MHC binding, purified MHC/direct/fluorescence; filed as Kd, often an IC50 or EC50 that approximates it; bounds were set here for any values at or beyond the usual limits of such assays
Details: source organism: West Nile virus
Each entry below carries its reported Kd.

[
  {
    "Sequence": "TSDYINTSL",
    "Study System": "HLA-B*48:01",
    "Endpoint Result": "≥ 20 µM"
  }
]

Proceeding to the next sequence to report its Kd.
Request: Item under review: MLRKKQITV . Reported Kd?
Response: ≥ 20 µM
